- Tested on: L1210 leukemia ip in BDF1 mice, survival T/C
- assay.text: NCI In Vivo Anticancer Drug Screen. Data for tumor model L1210 Leukemia (intraperitoneal) in B6D2F1 (BDF1) mice
- test.context: endpoint: mean survival time; dose: 200.0 mg/kg/injection; schedule: Q01DX009 (ip); vehicle: Klucel (hydroxypropylcellulose) (HPC); higher = longer survival
Inconclusive results and toxic doses are left out.
readout.label: T/C

Checklist item: T/C tested on L1210 leukemia ip in BDF1 mice, survival T/C, entry Nc1ccc(/C=C/c2ccncc2)cc1 , value?
92 % of control

Please answer likewise for Cc1nc2ccccc2n(O)c1=O
89 % of control

Please answer likewise for CCc1ccccc1NC(=O)Nc1ccc(C(=O)O)c(O)c1
101 % of control

Please answer likewise for O=C1c2cccc3c([N+](=O)[O-])ccc(c23)C(=O)N1CC1CCCO1 (centres undefined)
110 % of control

Please answer likewise for O=[N+]([O-])c1cnc2ccnn2c1
97 % of control

Please answer likewise for Cc1cc(C)c(-c2c(Br)c(OC(=O)c3ccc([N+](=O)[O-])cc3)c(-c3c(C)cc(C)c(Br)c3C)c(Br)c2OC(=O)c2ccc([N+](=O)[O-])cc2)c(C)c1Br
97 % of control

Please answer likewise for CCOC(=O)C1C(O)=C(P(=O)(C2=C(O)C(C(=O)OCC)C(c3ccc(OC(C)=O)cc3)C(C(=O)O)C2=O)N(CCCl)CCCl)C(=O)C(C(=O)O)C1c1ccc(OC(C)=O)cc1 (centres undefined)
102 % of control

Please answer likewise for CC1CCCC(C)N1NC(=O)NCCCl (centres undefined)
102 % of control

Please answer likewise for N#CCCN(C(=O)COc1ccc(Cl)cc1Cl)C1CCCCC1
104 % of control

Please answer likewise for CCc1ccc2c(c1)Nc1ccccc1S2
101 % of control

Please answer likewise for CCOC(=O)c1ccc(C(=O)O)[n+]([O-])c1
95 % of control

Please answer likewise for CCCCOP(=O)(CCl)OCCCC
103 % of control

Please answer likewise for Cn1nc(N)c2cc(C#N)c(N)nc21
90 % of control

Please answer likewise for Cc1cc(=O)oc2cc(OC(=O)Nc3ccc(F)c([N+](=O)[O-])c3)ccc12
107 % of control
